tested on: leukotriene biosynthesis; assay: Inhibition of leukotriene biosynthesis in vivo after oral administration, rat peritoneal anaphylaxis model; conditions: 200 μmol/kg oral (gavage), 1 h before antigen challenge, read-out: % Inhibition of Leukotrienes at 200 μmol/kg oral dose
measure: inhibition in vivo at 200 µmol/kg (%)
One number for each entry, in %.

Worked set:
{"columns": ["compound", "study_system", "units", "inhibition in vivo at 200 µmol/kg"],
 "data": [
  ["NC(=O)N(O)C[C@@H]1C[C@H]1c1ccc(Br)cc1 (relative stereo)", "leukotriene biosynthesis", "%", 99],
  ["CNC(=O)N(O)C[C@@H]1C[C@H]1c1cc2ccccc2s1 (relative stereo)", "leukotriene biosynthesis", "%", 76],
  ["COc1ccc([C@@H]2C[C@H]2C(C)N(O)C(C)=O)cc1 (some centres unmarked)", "leukotriene biosynthesis", "%", 96],
  ["NC(=O)N(O)C[C@@H]1C[C@H]1c1cccc(Oc2ccccc2)c1 (relative stereo)", "leukotriene biosynthesis", "%", 97]
]}

// next entry
# input Recall the recorded inhibition in vivo at 200 µmol/kg for CC([C@@H]1C[C@H]1c1ccccc1)N(O)C(N)=O (some centres unmarked) with leukotriene biosynthesis and state it.
# output 100
